biological target: T1, human FcRn/b2M (human, UniProt P61769 21-119, biotinylated); assay: SPR pH 7.4;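 note: surface plasmon resonance kinetics, periplasmic extracts diluted 1:10 flowed over immobilized target at 25 °C, 120 s association then 600–3600 s dissociation, buffer with 150 mM NaCl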
T1 construct: bought recombinant biotinylated protein (ACRO FCM-H82W4 or Immunitrack ITF01); also called hFcRn; hFcRn/hb2M
measured.parameter: koff (s⁻¹)

binder	measurement.units	koff
T0263018B11 Y32Q (VHH, name in Kabat numbering, FLAG3-His6 tagged) VHH: EVQLVESGGGVVQPGGSLRLSCAASGFTFSSQAMYWVRQAPGKGLEWVSAISSGGGSTDYADSVKGRFTISRDNSKNTLYLQMNSLRPEDTALYYCAADTLYTSLTWYSYWGQGTLVTVSS	s⁻¹	0.14
T0263018B11 W100cL (VHH, name in Kabat numbering, FLAG3-His6 tagged) VHH: EVQLVESGGGVVQPGGSLRLSCAASGFTFSSYAMYWVRQAPGKGLEWVSAISSGGGSTDYADSVKGRFTISRDNSKNTLYLQMNSLRPEDTALYYCAADTLYTSLTLYSYWGQGTLVTVSS	s⁻¹	0.46
T0263018B11 T57V (VHH, name in Kabat numbering, FLAG3-His6 tagged) VHH: EVQLVESGGGVVQPGGSLRLSCAASGFTFSSYAMYWVRQAPGKGLEWVSAISSGGGSVDYADSVKGRFTISRDNSKNTLYLQMNSLRPEDTALYYCAADTLYTSLTWYSYWGQGTLVTVSS	s⁻¹	0.034
T0263018B11 Y32T (VHH, name in Kabat numbering, FLAG3-His6 tagged) VHH: EVQLVESGGGVVQPGGSLRLSCAASGFTFSSTAMYWVRQAPGKGLEWVSAISSGGGSTDYADSVKGRFTISRDNSKNTLYLQMNSLRPEDTALYYCAADTLYTSLTWYSYWGQGTLVTVSS	s⁻¹	0.19
T0263018B11 T100bL (VHH, name in Kabat numbering, FLAG3-His6 tagged) VHH: EVQLVESGGGVVQPGGSLRLSCAASGFTFSSYAMYWVRQAPGKGLEWVSAISSGGGSTDYADSVKGRFTISRDNSKNTLYLQMNSLRPEDTALYYCAADTLYTSLLWYSYWGQGTLVTVSS	s⁻¹	0.14

[P] T0263018B11 S100M (VHH, name in Kabat numbering, FLAG3-His6 tagged) VHH: EVQLVESGGGVVQPGGSLRLSCAASGFTFSSYAMYWVRQAPGKGLEWVSAISSGGGSTDYADSVKGRFTISRDNSKNTLYLQMNSLRPEDTALYYCAADTLYTMLTWYSYWGQGTLVTVSS
[Q] T0263018B11 S101M (VHH, name in Kabat numbering, FLAG3-His6 tagged) VHH: EVQLVESGGGVVQPGGSLRLSCAASGFTFSSYAMYWVRQAPGKGLEWVSAISSGGGSTDYADSVKGRFTISRDNSKNTLYLQMNSLRPEDTALYYCAADTLYTSLTWYMYWGQGTLVTVSS
Ask | Select the item whose koff value is smaller, choosing between P and Q . Returns: label corresponding to the selected item.
Reply | P

[A] T0263018B11 F29V (VHH, name in Kabat numbering, FLAG3-His6 tagged) VHH: EVQLVESGGGVVQPGGSLRLSCAASGFTVSSYAMYWVRQAPGKGLEWVSAISSGGGSTDYADSVKGRFTISRDNSKNTLYLQMNSLRPEDTALYYCAADTLYTSLTWYSYWGQGTLVTVSS
[B] T0263018B11 G26Y (VHH, name in Kabat numbering, FLAG3-His6 tagged) VHH: EVQLVESGGGVVQPGGSLRLSCAASYFTFSSYAMYWVRQAPGKGLEWVSAISSGGGSTDYADSVKGRFTISRDNSKNTLYLQMNSLRPEDTALYYCAADTLYTSLTWYSYWGQGTLVTVSS
[C] T0263018B11 T28I (VHH, name in Kabat numbering, FLAG3-His6 tagged) VHH: EVQLVESGGGVVQPGGSLRLSCAASGFIFSSYAMYWVRQAPGKGLEWVSAISSGGGSTDYADSVKGRFTISRDNSKNTLYLQMNSLRPEDTALYYCAADTLYTSLTWYSYWGQGTLVTVSS
Ask | Put the entries in order of koff, starting with the largest number. I would appreciate it if you listed the labels in the requested order.
Reply | A, C, B
